- target_system: Adenosine Receptor A1 (Cavia porcellus)
- Construct: prepared guinea pig assays for binodenoson; from tissue; host or cells: isolated guinea pig right / left atrium
- Sequence (P47745 whole entry): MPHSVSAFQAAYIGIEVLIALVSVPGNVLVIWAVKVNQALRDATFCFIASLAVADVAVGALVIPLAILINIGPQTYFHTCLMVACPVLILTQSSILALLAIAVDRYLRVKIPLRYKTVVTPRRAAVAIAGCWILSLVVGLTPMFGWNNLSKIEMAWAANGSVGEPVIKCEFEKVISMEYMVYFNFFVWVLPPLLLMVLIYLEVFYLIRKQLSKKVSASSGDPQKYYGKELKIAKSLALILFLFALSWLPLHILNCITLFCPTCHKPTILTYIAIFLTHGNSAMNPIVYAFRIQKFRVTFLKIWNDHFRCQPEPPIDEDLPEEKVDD
- procedure_text: G.P. Right Atrium (Negative Inotropy) bioassay
- Set-up: species or system guinea pig
pEC50: −log10 of the molar value.

{"molecule": "Nc1nc(N/N=C/C2CCCCC2)nc2c1ncn2[C@@H]1O[C@H](CO)[C@@H](O)[C@H]1O (stereo in doubt)", "pEC50": 4.68}

====

- procedure_text: Single-dose pharmacokinetics, safety and tolerability of 10-minute intravenous infusion in healthy volunteers
- Assay type: in vivo, human
- conditions: human, 1 ug/kg; plasma, 1 μg/kg iv over 10 minutes; read-out: Cmax, mean (SD)

{"molecule": "Nc1nc(N/N=C/C2CCCCC2)nc2c1ncn2[C@@H]1O[C@H](CO)[C@@H](O)[C@H]1O (stereo in doubt)", "Cmax [ng/mL]": 2.1}
